- EXPERIMENTAL_TARGET: Beta-1 adrenergic receptor (Homo sapiens, UniProt P08588)
- Sequence (P08588 whole entry): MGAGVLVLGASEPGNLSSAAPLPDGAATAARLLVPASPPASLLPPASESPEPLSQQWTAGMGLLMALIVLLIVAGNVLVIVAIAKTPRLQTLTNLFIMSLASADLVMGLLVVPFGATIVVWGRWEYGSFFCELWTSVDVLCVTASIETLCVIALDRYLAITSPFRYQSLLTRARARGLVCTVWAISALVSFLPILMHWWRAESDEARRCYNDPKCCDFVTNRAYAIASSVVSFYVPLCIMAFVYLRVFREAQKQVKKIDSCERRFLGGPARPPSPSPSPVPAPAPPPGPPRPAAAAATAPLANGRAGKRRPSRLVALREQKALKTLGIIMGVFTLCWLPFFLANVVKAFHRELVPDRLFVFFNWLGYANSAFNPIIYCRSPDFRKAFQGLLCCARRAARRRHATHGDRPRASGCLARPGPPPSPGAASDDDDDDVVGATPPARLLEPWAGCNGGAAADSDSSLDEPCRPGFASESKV
- EXPERIMENT_NOTES: Antagonist activity at human beta1-adrenergic receptor expressed in CHO-K1 cells assessed as decrease in isoproterenol-induced cAMP accumulation after 15 mins by HTRF assay
- Format: functional, cell-based
QUANTITY_MEASURED: IC50 (nM)
// note: answer is a bare numeric in nM

May I ask what IC50 has been recorded for COc1cc2c3c(c1OC)-c1ccccc1[C@@H](O)[C@@H]3NCC2 ?
17

###

- EXPERIMENTAL_TARGET: Beta-1 adrenergic receptor (Homo sapiens, UniProt P08588)
QUANTITY_MEASURED: Ki (nM)
// note: answer is a bare numeric in nM

May I ask what Ki has been recorded for COc1cc2c3c(c1OC)-c1ccccc1[C@@H](O)[C@@H]3NCC2 ?
19

###

- EXPERIMENTAL_TARGET: Beta-2 adrenergic receptor (Homo sapiens, UniProt P07550)
- Sequence (P07550 whole entry): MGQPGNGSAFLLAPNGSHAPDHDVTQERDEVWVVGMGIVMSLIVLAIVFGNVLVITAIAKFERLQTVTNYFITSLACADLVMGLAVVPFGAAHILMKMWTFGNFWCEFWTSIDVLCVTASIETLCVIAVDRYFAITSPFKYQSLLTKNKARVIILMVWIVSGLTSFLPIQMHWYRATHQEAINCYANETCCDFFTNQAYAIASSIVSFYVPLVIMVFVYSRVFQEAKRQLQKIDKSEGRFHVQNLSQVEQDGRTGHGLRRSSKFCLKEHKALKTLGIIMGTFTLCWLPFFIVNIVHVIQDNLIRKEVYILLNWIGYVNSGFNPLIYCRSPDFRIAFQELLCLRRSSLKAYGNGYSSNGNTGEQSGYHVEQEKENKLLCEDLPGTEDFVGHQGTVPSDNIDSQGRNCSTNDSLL
- EXPERIMENT_NOTES: Displacement of [3H]-CGP-12177 from human beta2-adrenergic receptor
So I've got a bunch of molecules here, and I need their IC50 values.

May I ask what IC50 has been recorded for COc1cc2c3c(c1OC)-c1ccccc1[C@H](O)[C@H]3NCC2 ?
1600 nM

Next up: COc1cc2c3c(c1OC)-c1ccccc1[C@@H](O)[C@]3(C)NCC2 (relative stereo)
20 nM

Next up: COc1cc2c(cc1OC)[C@H]([C@H](O)c1ccccc1Cl)NCC2
> 10000 nM

Next up: COc1ccc(CCNC[C@H](O)c2ccccc2)cc1OC
8400 nM

Next up: COc1cc2c3c(c1OC)-c1ccccc1[C@@H](O)[C@@H]3NCC2
1.4 nM

Next up: COc1cc2c(cc1OC)[C@H]([C@H](O)c1ccccc1)NCC2
> 10000 nM

Next up: COc1cc2c3c(c1OC)-c1ccccc1[C@@H](O)[C@H]3NCC2
210 nM

###

- EXPERIMENTAL_TARGET: Beta-2 adrenergic receptor (Homo sapiens, UniProt P07550)
QUANTITY_MEASURED: Ki
Respond with the figure and its unit, in that order.

Any idea what Ki came out for COc1cc2c3c(c1OC)-c1ccccc1[C@@H](O)[C@@H]3NCC2 on Beta-2 adrenergic receptor (Homo sapiens, UniProt P07550)?
13 nM

###

- EXPERIMENTAL_TARGET: Alpha-2B adrenergic receptor (Homo sapiens)
- Sequence (P18089 whole entry): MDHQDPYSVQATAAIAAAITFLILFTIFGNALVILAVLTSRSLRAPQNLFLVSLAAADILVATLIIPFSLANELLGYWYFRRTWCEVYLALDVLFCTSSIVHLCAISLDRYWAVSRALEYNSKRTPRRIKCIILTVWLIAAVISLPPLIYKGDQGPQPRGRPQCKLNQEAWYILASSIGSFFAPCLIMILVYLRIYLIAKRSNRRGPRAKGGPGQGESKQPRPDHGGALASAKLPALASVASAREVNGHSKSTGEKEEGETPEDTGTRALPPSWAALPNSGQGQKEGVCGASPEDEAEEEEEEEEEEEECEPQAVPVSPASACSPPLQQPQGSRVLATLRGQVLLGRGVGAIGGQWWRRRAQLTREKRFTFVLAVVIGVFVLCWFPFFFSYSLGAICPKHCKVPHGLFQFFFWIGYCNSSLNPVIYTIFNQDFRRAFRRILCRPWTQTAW
QUANTITY_MEASURED: pKi
Notebook: values listed as pKi are -log10 of the concentration (mol/L).

May I ask what pKi has been recorded for COc1cc2c3c(c1OC)-c1ccccc1[C@@H](O)[C@@H]3NCC2 ?
6.24
